Readings of viability at 500 µM for the listed molecules
Tested on: A549 cells
method.description: Cytotoxicity against A549 cells, Alamar Blue
Assay type: cell-based
stated.conditions: Homo sapiens, A549, 65 h; Supplementary Table 1; compound 0.5 mM; percentage of controls (n=1)
parameter.measured: viability at 500 µM

O=C(C1CCCNC1)N1CCCC1 (centres unmarked) [compound 468, 3‐piperidinyl(1‐pyrrolidinyl)methanone] | 80.7%
N#Cc1c(N)cccc1Cl [compound 210, 2‐amino‐6‐chlorobenzonitrile] | 89.2%
Cn1cncc1C#N [compound 15, 1‐methyl‐1H‐imidazole‐5‐carbonitrile] | 90%
CCCc1nccs1 [compound 82, 2‐propyl‐1,3‐thiazole] | 114%
CC(=O)N1CCC(C#N)CC1 [compound 207, 1‐acetylpiperidine‐4‐carbonitrile] | 65.3%
Cc1cccc(O)n1 [compound 19, 6‐methylpyridin‐2‐ol] | 85.6%
OCc1cnccn1 [compound 23, 2‐pyrazinylmethanol] | 75.9%
O=C(O)c1cccc(-n2cccc2)c1 [compound 511, 3‐(1H‐pyrrol‐1‐yl)benzoic acid] | 73%
COC(=O)c1c[nH]c2ccccc12 [compound 392, methyl 1H‐indole‐3‐carboxylate] | 88.1%
OCc1nccs1 [compound 38, 1,3‐thiazol‐2‐ylmethanol] | 95%
OC12CC3CC(CC(C3)C1)C2 [compound 209, adamantan‐1‐ol] | 76.1%
COc1ccc(OC)c(CN)c1 [compound 329, 2,5‐dimethoxybenzylamine] | 156%
Cc1csc(C(N)=O)c1 [compound 134, 4‐methylthiophene‐2‐carboxamide] | 123%
O=C(O)CCC(=O)c1cccs1 [compound 478, 4-oxo-4-(2-thienyl)butanoic acid] | 92.3%
Fc1ccc(-n2cccc2)cc1 [compound 276, 1‐(4‐fluorophenyl)‐1H‐pyrrole] | 70.2%
c1cncc(-n2cccc2)c1 [compound 151, 3‐(1H‐pyrrol‐1‐yl)pyridine] | 90.1%
CNCc1cccnc1 [compound 57, N‐methyl‐N‐(3‐pyridylmethyl)amine] | 79%
O=C(Nc1ccncc1)c1ccccc1 [compound 603, N1‐(4‐pyridyl)benzamide] | 57.3%
OCc1ccc(-c2ccccc2)nc1 [compound 492, (6‐phenyl‐3‐pyridinyl)methanol] | 81.3%
O=C(O)c1ccccn1 [compound 58, 2‐pyridinecarboxylic acid] | 97.9%
Clc1cn2ccsc2n1 [compound 253, 6‐chloroimidazo[2,1‐b][1,3]thiazole] | 85.1%
Cc1onc(-c2ccccc2)c1CO [compound 534, (5‐methyl‐3‐phenyl‐4‐isoxazolyl)methanol] | 62.9%
CCN(CC)CCc1ccccn1 [compound 443, N,N‐diethyl‐N‐[2‐(2‐pyridyl)ethyl]amine] | 49.2%
NC(=S)CSc1ccccc1 [compound 472, 2‐(phenylthio)ethanethioamide] | 86%
Nc1ccccc1-n1ccnc1 [compound 262, 2‐(1H‐imidazol‐1‐yl)aniline] | 76%
O=c1c2ccccc2oc2ncccc12 [compound 600, 5H‐chromeno[2,3‐b]pyridin‐5‐one] | 126%
O=C(O)Cc1coc2ccccc12 [compound 410, benzo[b]furan‐3‐ylacetic acid] | 97.4%
Cc1ccc2cc(CO)ccc2n1 [compound 374, (2‐methyl‐6‐quinolinyl)methanol] | 46.3%
O=C(O)C1CCCO1 (centres unmarked) [compound 42, tetrahydro‐2‐furancarboxylic acid] | 75.1%

----------
Test system: A549 cells
method.description: Cytotoxicity against A549 cells, Alamar Blue
Format: cell-based
stated.conditions: Homo sapiens, A549, 65 h; Supplementary Table 1; compound 0.5 mM; percentage of controls (n=1)
parameter.measured: viability at 500 µM (%)

N#CC(c1ccccc1)N1CCOCC1 (stereo not shown) | 89.8
Cc1cccc(CN)c1C | 83.6
Cc1cc(Cl)ccc1C(=O)O | 160
COC(=O)c1cccc2cc[nH]c12 [compound 396, methyl 1H‐indole‐7‐carboxylate] | 164

----------
Test system: A549 cells
method.description: Cytotoxicity against A549 cells, Alamar Blue
Format: cell-based
stated.conditions: Homo sapiens, A549, 65 h; Supplementary Table 1; compound 0.5 mM; percentage of controls (n=1)
Description: Cytotoxic effects against HeLa and A549 cells were determined in a similar manner. Briefly, the cells were cultured in DMEM supplemented with 10% FCS and 2 mM L-Glutamine. Cells were plated at initial cell concentration of 2 × 10^4 cells/well and incubated with the compounds for ~65 hours prior to addition of Alamar Blue solution for a further 5 hours.
Response field label takes label 1 when viability at 500 µM is strictly below 80% and label 0 in all other cases.

Nc1ccc(C(F)(F)F)cn1 | label 1
OCc1ncoc1-c1ccccc1 | label 1
OCc1cc2cccnc2s1 [compound 311, thieno[2,3‐b]pyridin‐2‐ylmethanol] | label 1
O=C(O)CCc1ccco1 | label 0
Cc1nc(CC(=O)O)cs1 | label 0
CNCc1ccc(-c2nccs2)cc1 | label 0
CCC1CCC(N)CC1 (stereo not drawn) | label 0
O=C1CCC2CC1CCC2=O [compound 206, bicyclo[3.3.1]nonane‐2,6‐dione] | label 1
CC(=O)c1ccc(C#N)cc1 | label 0
Cn1ccnc1CO | label 1
NCc1cc(Cl)cc(Cl)c1 | label 0
CCOC(=O)Cc1ccc(N)cc1 [compound 446, ethyl 2‐(4‐aminophenyl)acetate] | label 1
OCc1ccc2ncccc2c1 | label 0
OCC1Cc2ccccc2O1 (stereo not drawn) [compound 187, 2,3‐dihydro‐1‐benzofuran‐2‐ylmethanol] | label 1
Nc1ccc2[nH]ncc2c1 | label 1
c1cc(-c2ccncc2)ccn1 | label 1
Cc1cc(N)n(C)n1 | label 1
Nc1cc2ccccc2cn1 | label 0
O=C(O)C1NCCS1 (stereo not drawn) | label 0
OCc1ccc(-n2cccn2)cc1 [compound 385, [4‐(1H‐pyrazol‐1‐yl)phenyl]methanol] | label 0
Nc1ccc(Oc2ccccc2)nc1 | label 1
NC(=O)c1ccccc1Cl [compound 230, 2‐chlorobenzamide] | label 0
CNCc1cccc(-c2ccncc2)c1 | label 1
Cc1occc(=O)c1O [compound 74, 3‐hydroxy‐2‐methyl‐4H‐pyran‐4‐one] | label 0
Nc1ccc(C(F)(F)F)cc1 | label 0
CN1CCN(Cc2ccccc2N)CC1 | label 0
O=C(O)c1cncc(-c2ccccc2)c1 | label 1
O=C(O)c1sccc1-n1cccc1 | label 0
Cc1cccc(N)c1N | label 1

----------
Readings of A549 Cells Alamar Blue for the listed compounds
Tested on: A549 cells
method.description: Cytotoxicity against A549 cells, Alamar Blue
Assay type: cell-based
stated.conditions: Supplementary Table 1; compound 0.5 mM; percentage of controls (n=1)
parameter.measured: A549 Cells Alamar Blue

N#Cc1scc2c1OCCO2 | 121.1 percentage of controls
CC(=O)Nc1ccc2c(c1)CCC2=O | 76.5 percentage of controls
Cn1nc(O)cc1C(F)(F)F | 95.3 percentage of controls
CC(=O)c1cc(F)cc(F)c1O | 149.7 percentage of controls
Cc1cc(CN)n(C)n1 | 107.6 percentage of controls
Cn1nc(C(C)(C)C)cc1N | 56.7 percentage of controls
CN(C)C1(CN)CCSC1 (stereo not drawn) | 87.3 percentage of controls
N#CCCNCC1CCCO1 (stereo not drawn) | 60 percentage of controls
Nc1ccc2c(c1)OCCCO2 [compound 308, 3,4‐dihydro‐2H‐1,5‐benzodioxepin‐7‐amine] | 82.8 percentage of controls
CC(=O)Nc1cc(C)ccc1O [compound 303, N1‐(2‐hydroxy‐5‐methylphenyl)acetamide] | 45 percentage of controls
Cc1cc(N)ccc1C(C)C.Cl | 115.7 percentage of controls
Cn1c(C(=O)O)cc2sccc21 | 89.4 percentage of controls

----------
Test system: A549 cells
method.description: Cytotoxicity against A549 cells, Alamar Blue
Type: cell-based
stated.conditions: Supplementary Table 1; compound 0.5 mM; percentage of controls (n=1)
Readings of A549 Cells Alamar Blue for the listed compounds
parameter.measured: A549 Cells Alamar Blue

CC1(C(=O)O)CC2C=CC1C2 (stereo not shown) [compound 205] | 53.8 percentage of controls
Cc1nc(-c2ccccc2)c(CO)s1 [compound 666] | 113.4 percentage of controls
Cl.NCc1ccc2c(c1)CCO2 [compound 496] | 96.7 percentage of controls
CSc1ccc(C(=O)O)s1 [compound 389] | 125.1 percentage of controls
CN1C2CCC1CC(=NO)C2.Cl [compound 552] | 105.3 percentage of controls
Nc1ccc2c(c1)CCCC2=O [compound 280] | 87.3 percentage of controls
CN(C)CCOc1ccccc1CO [compound 593] | 59.2 percentage of controls
O=C(O)c1cccc2c1OCC2 [compound 297] | 74.9 percentage of controls
CNCc1c(-c2ccccc2)noc1C [compound 637] | 112.6 percentage of controls
NCc1ccc(CN2CCCCC2)cc1 [compound 658, [4‐(piperidinomethyl)phenyl]methylamine] | 123.5 percentage of controls
FC(F)(F)C1=NCCNC=C1 [compound 295] | 72.1 percentage of controls
COC(=O)c1scc(C)c1Cl [compound 551] | 104.9 percentage of controls
OCc1ccc2c(c1)OCCCO2 [compound 453] | 51.6 percentage of controls
COC(=O)c1cc2ccsc2[nH]1 [compound 463] | 59.7 percentage of controls
CNCc1ccnc(N2CCCCC2)c1 [compound 671] | 82.7 percentage of controls
NC(=S)c1cccc2c1OCCO2 [compound 592] | 39.8 percentage of controls
CCOC(=O)c1c(N)sc(C)c1C [compound 617] | 75.2 percentage of controls
COC(=O)c1sccc1O [compound 247, methyl 3‐hydroxythiophene‐2‐carboxylate] | 108.7 percentage of controls
CNCc1scc2c1OCCO2 [compound 495] | 96.9 percentage of controls
